Target: ETB (Rattus norvegicus)
Construct: thaw one aliquot of frozen rat cerebellar membranes; from tissue; host or cells: rat cerebellar membranes
Test: Endothelin Receptor Binding Assay-B (ETB), [125I]-ET-1 binding in rat cerebellar membranes
Details: Table IIa; rat cerebellar membranes; read-out: Binding Assay IC50 at Receptor Subtypes ETB
Square brackets hold non-standard residues; d marks the D form. Peptide text beside a SMILES is read from it. * marks the point of attachment. dDip = N[C@@H](C(=O)O)C(c1ccccc1)c1ccccc1; d1Nal = N[C@H](Cc1cccc2ccccc12)C(=O)O; Acetyl(3-pyridyl) = O=C(Cc1cccnc1)*
measure: IC50 (nM)
Value expressed in nM; do not type the unit.

>  <compound>
CC[C@H](C)[C@H](NC(=O)[C@H](CC(=O)O)NC(=O)[C@H](CC(C)C)NC(=O)[C@@H](Cc1cccc2ccccc12)NC(C)=O)C(=O)N[C@H](C(=O)N[C@@H](Cc1c[nH]c2ccccc12)C(=O)O)[C@@H](C)CC [Example 45, Ac-1-D--Nal--Leu--Asp--Ile--Ile--Trp] (Ac-[d1Nal]LDIIW-OH)

>  <IC50 [nM]>
450

$$$$

Dear colleague, I am looking for the recorded IC50 of the following compound: CC[C@H](C)[C@H](NC(=O)[C@H](CC(=O)O)NC(=O)[C@H](CC(C)C)NC(=O)[C@H](NC(=O)Cc1cccnc1)C(c1ccccc1)c1ccccc1)C(=O)N[C@H](C(=O)N[C@@H](Cc1c[nH]c2ccccc12)C(=O)O)[C@@H](C)CC [Example 33, Pya--D--Dip--Leu--Asp--Ile--Ile--Trp] ({Acetyl(3-pyridyl)}-[dDip]LDIIW-OH)
180

###

pIC50 values by entry
Target: ETB (Rattus norvegicus, UniProt P21451)
Construct: thaw one aliquot of frozen rat cerebellar membranes; from tissue; host or cells: rat cerebellar membranes
Sequence (P21451 27-442): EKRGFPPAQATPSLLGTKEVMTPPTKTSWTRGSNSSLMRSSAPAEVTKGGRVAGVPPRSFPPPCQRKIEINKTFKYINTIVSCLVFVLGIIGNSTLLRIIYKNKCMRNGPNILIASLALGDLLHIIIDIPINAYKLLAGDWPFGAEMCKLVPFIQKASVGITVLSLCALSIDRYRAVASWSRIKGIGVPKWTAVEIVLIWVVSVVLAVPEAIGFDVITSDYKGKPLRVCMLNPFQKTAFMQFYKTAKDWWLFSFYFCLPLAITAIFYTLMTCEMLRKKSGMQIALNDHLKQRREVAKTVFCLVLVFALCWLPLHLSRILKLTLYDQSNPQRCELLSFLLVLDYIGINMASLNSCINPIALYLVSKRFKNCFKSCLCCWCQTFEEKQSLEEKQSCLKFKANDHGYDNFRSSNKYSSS
Assay: Endothelin Receptor Binding Assay-B (ETB), [125I]-ET-1 binding in rat cerebellar membranes
Conditions: Table IIa; rat cerebellar membranes; read-out: Binding Assay IC50 at Receptor Subtypes ETB
Square brackets hold non-standard residues; d marks the D form. Peptide text beside a SMILES is read from it. * marks the point of attachment. dDip = N[C@@H](C(=O)O)C(c1ccccc1)c1ccccc1; Propionyl = CCC(=O)*
Hey, just a heads up that pIC50 is the negative log base 10 of the concentration in molar.

>  <molecule>
CC[C@H](C)[C@H](NC(=O)[C@H](CC(=O)O)NC(=O)[C@H](CC(C)C)NC(=O)[C@H](NC(C)=O)C(c1ccccc1)c1ccccc1)C(=O)N[C@H](C(=O)N[C@@H](Cc1c[nH]c2ccccc12)C(=O)O)C(C)C [Example 86, Ac--D--Dip--Leu--Asp--Ile--Val--Trp] (Ac-[dDip]LDIVW-OH)

>  <pIC50>
6.20

$$$$

Now, please, on to the next molecule.
Dear colleague, I am looking for the recorded pIC50 of the following molecule: CCC(=O)N[C@@H](C(=O)N[C@@H](CC(C)C)C(=O)N[C@@H](CC(=O)O)C(=O)N[C@H](C(=O)N[C@H](C(=O)N[C@@H](Cc1c[nH]c2ccccc12)C(=O)O)[C@@H](C)CC)[C@@H](C)CC)C(c1ccccc1)c1ccccc1 [Example 31, Et--D--Dip--Leu--Asp--Ile--Ile--Trp] (Propionyl-[dDip]LDIIW-OH)
5.70
